Target: α4β1 integrin (Homo sapiens (Human), UniProt P05556+P13612)
Sequence (P13612 34-1032): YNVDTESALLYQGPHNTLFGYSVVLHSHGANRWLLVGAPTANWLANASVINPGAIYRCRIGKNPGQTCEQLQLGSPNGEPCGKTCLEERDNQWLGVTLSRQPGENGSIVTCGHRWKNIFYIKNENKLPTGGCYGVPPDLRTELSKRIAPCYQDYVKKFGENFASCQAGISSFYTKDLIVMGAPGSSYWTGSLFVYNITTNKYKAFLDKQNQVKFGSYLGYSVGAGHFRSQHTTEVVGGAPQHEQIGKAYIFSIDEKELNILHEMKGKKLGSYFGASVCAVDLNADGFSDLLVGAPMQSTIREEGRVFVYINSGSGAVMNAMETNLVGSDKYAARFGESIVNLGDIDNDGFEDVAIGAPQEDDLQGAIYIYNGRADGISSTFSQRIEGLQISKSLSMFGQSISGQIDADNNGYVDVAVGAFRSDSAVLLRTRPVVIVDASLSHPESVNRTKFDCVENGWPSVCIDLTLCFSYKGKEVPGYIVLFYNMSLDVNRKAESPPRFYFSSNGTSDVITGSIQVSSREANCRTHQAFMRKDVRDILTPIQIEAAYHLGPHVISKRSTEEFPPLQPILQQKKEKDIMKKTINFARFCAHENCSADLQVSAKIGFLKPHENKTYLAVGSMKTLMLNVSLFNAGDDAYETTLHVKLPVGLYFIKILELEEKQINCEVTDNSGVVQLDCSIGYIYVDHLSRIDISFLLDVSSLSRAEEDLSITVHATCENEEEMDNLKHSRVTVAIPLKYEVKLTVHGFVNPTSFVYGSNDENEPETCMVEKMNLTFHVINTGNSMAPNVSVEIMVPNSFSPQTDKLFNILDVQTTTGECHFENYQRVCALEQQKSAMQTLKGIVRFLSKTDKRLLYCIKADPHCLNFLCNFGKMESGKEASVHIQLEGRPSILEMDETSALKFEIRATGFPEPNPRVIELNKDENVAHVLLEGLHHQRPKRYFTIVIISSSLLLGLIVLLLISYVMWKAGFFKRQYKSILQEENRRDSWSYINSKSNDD
Sequence (P05556 21-798): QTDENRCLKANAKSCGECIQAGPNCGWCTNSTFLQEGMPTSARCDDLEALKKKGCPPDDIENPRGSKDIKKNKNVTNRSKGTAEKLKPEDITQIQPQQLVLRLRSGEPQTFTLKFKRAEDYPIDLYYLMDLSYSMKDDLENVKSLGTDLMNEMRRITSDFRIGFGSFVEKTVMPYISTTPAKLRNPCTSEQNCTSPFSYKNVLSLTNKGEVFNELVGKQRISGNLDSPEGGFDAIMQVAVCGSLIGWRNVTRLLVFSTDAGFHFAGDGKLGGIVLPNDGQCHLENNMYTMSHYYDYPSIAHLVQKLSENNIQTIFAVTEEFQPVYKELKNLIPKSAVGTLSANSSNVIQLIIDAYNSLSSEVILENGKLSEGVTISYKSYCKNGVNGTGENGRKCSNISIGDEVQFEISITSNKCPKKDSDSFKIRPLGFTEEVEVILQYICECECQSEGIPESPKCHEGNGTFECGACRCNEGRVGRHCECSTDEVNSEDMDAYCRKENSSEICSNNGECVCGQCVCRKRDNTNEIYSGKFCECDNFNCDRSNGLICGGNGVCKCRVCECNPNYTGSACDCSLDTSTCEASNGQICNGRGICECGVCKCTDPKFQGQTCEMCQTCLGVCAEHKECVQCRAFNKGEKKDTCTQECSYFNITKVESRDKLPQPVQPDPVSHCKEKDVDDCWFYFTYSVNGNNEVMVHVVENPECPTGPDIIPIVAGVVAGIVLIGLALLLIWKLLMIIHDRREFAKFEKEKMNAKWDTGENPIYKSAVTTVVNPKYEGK
Experiment: Integrin Adhesion Assay: Protocol 5 (VCAM-coated plate, RPMI-8866 cells with stable LOF mutation of the ITGB7 gene)
Format: cell-based
Settings: RPMI-8866 cells with stable LOF mutation of the ITGB7 gene; read-out: Mean IC50 α4β1 KO^b
IC50: recorded values

>  <Compound>
O=C(O)[C@H](Cc1cccc2c(-c3cc4ccccc4cn3)cccc12)NC(=O)C1(C(F)(F)F)CCN(C2COC2)CC1 [Compound 525]

>  <IC50>
> 1000 nM

$$$$
>  <Compound>
COc1ccc(CN2CCC(F)(F)CC2)c(OC)c1-c1cccc2c(C[C@H](NC(=O)c3c(C)cc4cn(CC(F)(F)F)nc4c3F)C(=O)O)cccc12 [Compound 664]

>  <IC50>
> 1000 nM

$$$$
>  <Compound>
CN(C)Cc1ccc2c(-c3cccc4c(C[C@H](NC(=O)C5(C)CCN(CC(F)(F)F)CC5)C(=O)O)cccc34)nccc2c1 [Compound 583]

>  <IC50>
> 1000 nM

$$$$
>  <Compound>
CN(C)Cc1cc(-c2cccc3c(C[C@H](NC(=O)c4c(F)cc(N5CCOC[C@@H]5C(F)(F)F)cc4F)C(=O)O)cccc23)c2cnccc2c1 [Compound 445]

>  <IC50>
> 1000 nM

$$$$
>  <Compound>
Cc1cc(C(F)(F)F)c(-c2cccc3c(C[C@H](NC(=O)C4(C(F)(F)F)CCN(CC(F)(F)F)CC4)C(=O)O)cccc23)c(=O)n1C [Compound 453]

>  <IC50>
100 to 1000 nM

$$$$
>  <Compound>
COc1cc2c(c(C(F)(F)F)c1-c1cccc3c(C[C@H](NC(=O)C4(C(F)(F)F)CCN(CC(F)(F)F)CC4)C(=O)O)cccc13)CCN(CC(F)(F)F)C2 [Compound 673]

>  <IC50>
> 1000 nM

$$$$
>  <Compound>
Cn1c(=O)c(-c2cccc3c(C[C@H](NC(=O)C4(C(F)(F)F)CCN([C@H]5CCOC5)CC4)C(=O)O)cccc23)c(C(F)(F)F)c2ccccc21 [Compound 457]

>  <IC50>
100 to 1000 nM

$$$$
>  <Compound>
Cn1c(=O)c(-c2cccc3c(C[C@H](NC(=O)C4(C(F)(F)F)CCN(CC(F)(F)F)CC4)C(=O)O)cccc23)c(C(F)(F)F)c2ccccc21 [Compound 352]

>  <IC50>
100 to 1000 nM

$$$$
>  <Compound>
COc1c(CN2CCCCC2)ccc(C(F)(F)F)c1-c1cccc2c(C[C@H](NC(=O)C3(C(F)(F)F)CCN(CC(F)(F)F)CC3)C(=O)O)cccc12 [Compound 662]

>  <IC50>
> 1000 nM

$$$$
>  <Compound>
Cc1cccc(F)c1C(=O)N[C@@H](Cc1cccc2c(-c3c(C(F)(F)F)c4cc(CN(C)C)ccc4n(C)c3=O)cccc12)C(=O)O [Compound 451]

>  <IC50>
100 to 1000 nM

$$$$
>  <Compound>
CN1CCN(Cc2cc(N3CCOC[C@@H]3C(F)(F)F)cc(F)c2C(=O)N[C@@H](Cc2cccc3c(-c4c(C(F)(F)F)c5ccccc5n(C)c4=O)cccc23)C(=O)O)CC1 [Compound 360]

>  <IC50>
> 1000 nM

$$$$
>  <Compound>
CCC1(C(=O)N[C@@H](Cc2cccc3c(-c4ncc(CN5CCCCC5)c5ccccc45)cccc23)C(=O)O)CCN(CC(F)(F)F)CC1 [Compound 676]

>  <IC50>
> 1000 nM

$$$$
